Target: cloned human GLP-1 receptor (Homo sapiens)
Construct: expressed in transfected cells; host or cells: CHO or HEK-293 cells
Sequence (P43220 24-463): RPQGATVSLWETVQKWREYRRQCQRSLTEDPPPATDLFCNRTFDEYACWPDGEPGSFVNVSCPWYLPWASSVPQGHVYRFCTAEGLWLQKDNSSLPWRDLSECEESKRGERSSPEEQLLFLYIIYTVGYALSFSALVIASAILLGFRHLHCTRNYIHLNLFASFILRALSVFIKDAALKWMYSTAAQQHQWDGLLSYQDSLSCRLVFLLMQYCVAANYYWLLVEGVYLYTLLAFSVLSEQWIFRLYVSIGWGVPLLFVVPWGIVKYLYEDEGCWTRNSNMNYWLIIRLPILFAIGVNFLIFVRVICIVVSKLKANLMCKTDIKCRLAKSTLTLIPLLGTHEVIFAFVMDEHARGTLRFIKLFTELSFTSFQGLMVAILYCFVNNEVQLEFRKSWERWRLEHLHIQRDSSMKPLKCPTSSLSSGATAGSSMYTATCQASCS
Test: Functional cell-based assay: cAMP functional assay
Settings: 0.5 h; percentage relative to maximal GLP-1-induced cAMP accumulation; na = not active in the assay; read-out: % activation
Reported Emax is given for each of the following compounds.
Your answer should be a plain number; it is taken to be in %.

compound: N#Cc1ccc(-c2ccc(C[C@H](NC(=O)[C@@H]3Cc4cc5c(cc4CN3Cc3ccccc3Cl)OC(c3ccc(OCc4ccc(Cl)c(Cl)c4)cc3)C(=O)N5)C(=O)O)cc2)cc1 (stereo partly drawn)
u: %
measured.result: 56

compound: CC[C@@H](c1ccccc1)N1Cc2cc3c(cc2C[C@H]1C(=O)N[C@@H](Cc1ccc(-c2ccc(Cl)cc2)cc1)C(=O)O)N(C)C(=O)[C@H](c1ccc(OCc2ccc(Cl)c(Cl)c2)cc1)O3
u: %
measured.result: 31

Now for a further compound.
// field: Emax; key: "CC[C@@H](c1ccccc1)N1Cc2cc3c(cc2C[C@H]1C(=O)N[C@@H](Cc1ccc(-c2ccc(OC)cc2)cc1)C(=O)O)N(C)C(=O)[C@H](c1ccc(OCc2ccc(Cl)c(Cl)c2)cc1)O3" ; value = 41

FYI, the data here is from patent US7906507B2.
